Where do these numbers come from? They come from ChEMBL document CHEMBL5291721.

AC50, Histamine H1 receptor (Homo sapiens): measured values

[in] Could you share what AC50 was measured for CC(=O)O[C@H](CC(=O)[O-])C[N+](C)(C)C , tested on Histamine H1 receptor (Homo sapiens)?; also: assay procedure not described here
Sequence (P35367 whole entry): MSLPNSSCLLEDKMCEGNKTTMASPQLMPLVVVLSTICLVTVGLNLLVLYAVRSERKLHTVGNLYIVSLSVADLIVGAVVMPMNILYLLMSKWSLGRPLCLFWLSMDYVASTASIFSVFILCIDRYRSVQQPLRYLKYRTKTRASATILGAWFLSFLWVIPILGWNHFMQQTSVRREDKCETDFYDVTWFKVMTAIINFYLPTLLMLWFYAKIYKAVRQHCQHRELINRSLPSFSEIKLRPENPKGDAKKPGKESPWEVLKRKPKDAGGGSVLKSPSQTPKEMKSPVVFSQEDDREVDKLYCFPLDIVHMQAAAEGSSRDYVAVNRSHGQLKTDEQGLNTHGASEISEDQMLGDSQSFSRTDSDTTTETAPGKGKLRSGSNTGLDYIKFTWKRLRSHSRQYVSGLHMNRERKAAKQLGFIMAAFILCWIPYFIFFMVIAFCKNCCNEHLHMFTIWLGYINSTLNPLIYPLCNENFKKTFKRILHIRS
[out] 5.2 µM

[in] Another compound to check: C=C[C@@]1(C)CC(=O)[C@]2(O)[C@@]3(C)[C@@H](O)CCC(C)(C)[C@@H]3[C@H](O)[C@H](OC(C)=O)[C@@]2(C)O1
[out] > 30 µM

[in] // next record CC[C@@H]([C@H](C)O)n1ncn(-c2ccc(N3CCN(c4ccc(OC[C@@H]5CO[C@@](Cn6cncn6)(c6ccc(F)cc6F)C5)cc4)CC3)cc2)c1=O
[out] > 30 µM

* * *

Recorded below: AC50, system Neuronal acetylcholine receptor subunit alpha-4 (Homo sapiens, UniProt P43681). Also: assay procedure not described here.

OC[C@H]1O[C@@](CO)(O[C@H]2O[C@H](CO)[C@@H](O)[C@H](O)[C@H]2O)[C@@H](O)[C@@H]1O [SUCROSE]
> 30 µM
CCN(CC)CCN1C(=O)CN=C(c2ccccc2F)c2cc(Cl)ccc21 [FLURAZEPAM]
> 10 µM
CCC(=O)O[C@H]1CC[C@H]2[C@@H]3CCC4=CC(=O)CC[C@]4(C)[C@H]3CC[C@]12C [TESTOSTERONE PROPIONATE]
> 10 µM

[in] Need AC50, item CCN(CC)CCNC(=O)c1cc(S(C)(=O)=O)ccc1OC [TIAPRIDE]
[out] > 30 µM

* * *

# MEASUREMENT_TARGET: Progesterone receptor (Homo sapiens, UniProt P06401); also: assay procedure not described here
# Sequence (P06401 whole entry): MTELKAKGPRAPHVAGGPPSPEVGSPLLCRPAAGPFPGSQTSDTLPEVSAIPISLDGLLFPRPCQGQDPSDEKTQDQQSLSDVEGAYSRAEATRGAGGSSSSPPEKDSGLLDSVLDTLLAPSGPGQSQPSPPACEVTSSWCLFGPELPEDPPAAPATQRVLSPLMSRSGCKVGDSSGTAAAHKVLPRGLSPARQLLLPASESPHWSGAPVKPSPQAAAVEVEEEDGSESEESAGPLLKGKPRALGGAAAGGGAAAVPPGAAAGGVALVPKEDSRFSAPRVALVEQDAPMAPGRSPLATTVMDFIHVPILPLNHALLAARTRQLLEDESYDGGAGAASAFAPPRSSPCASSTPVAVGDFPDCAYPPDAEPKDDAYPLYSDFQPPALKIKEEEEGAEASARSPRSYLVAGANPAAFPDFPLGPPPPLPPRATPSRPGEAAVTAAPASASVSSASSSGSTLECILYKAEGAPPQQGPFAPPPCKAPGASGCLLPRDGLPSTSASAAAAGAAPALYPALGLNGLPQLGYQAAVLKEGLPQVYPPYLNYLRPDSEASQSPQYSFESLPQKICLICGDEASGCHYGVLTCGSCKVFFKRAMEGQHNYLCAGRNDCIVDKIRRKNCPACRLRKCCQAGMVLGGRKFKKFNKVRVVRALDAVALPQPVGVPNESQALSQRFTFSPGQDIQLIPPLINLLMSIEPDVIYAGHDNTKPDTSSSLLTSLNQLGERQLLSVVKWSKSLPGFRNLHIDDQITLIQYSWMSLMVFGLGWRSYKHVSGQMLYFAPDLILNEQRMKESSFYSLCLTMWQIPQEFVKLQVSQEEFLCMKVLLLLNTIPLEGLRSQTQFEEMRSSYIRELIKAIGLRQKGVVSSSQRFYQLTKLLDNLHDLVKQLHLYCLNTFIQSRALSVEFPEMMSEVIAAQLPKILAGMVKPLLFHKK
# Format: functional
Recorded AC50 values for a group of compounds are listed next.

COc1cc2ncnc(Nc3ccc(F)c(Cl)c3)c2cc1NC(=O)/C=C/CN1CCCCC1 [DACOMITINIB ANHYDROUS]
> 30 µM
NC(=O)CN1CCCC1=O
> 30 µM
CCCCCC(=O)O[C@]1(C(C)=O)CC[C@H]2[C@@H]3CCC4=CC(=O)CC[C@]4(C)[C@H]3CC[C@@]21C [HYDROXYPROGESTERONE CAPROATE]
0.003 µM

[in] Give the reported AC50 for CN(C)CCC[C@@]1(c2ccc(F)cc2)OCc2cc(C#N)ccc21 (system: Progesterone receptor (Homo sapiens, UniProt P06401)). Also: assay procedure not described here.
[out] > 30 µM

[in] For CCN(CC)CCNC(=O)c1cc(S(C)(=O)=O)ccc1OC [TIAPRIDE] then?
[out] > 30 µM

* * *

// reported AC50 per item
# MEASUREMENT_TARGET: UniProtKB P41595
# Sequence (P41595 whole entry): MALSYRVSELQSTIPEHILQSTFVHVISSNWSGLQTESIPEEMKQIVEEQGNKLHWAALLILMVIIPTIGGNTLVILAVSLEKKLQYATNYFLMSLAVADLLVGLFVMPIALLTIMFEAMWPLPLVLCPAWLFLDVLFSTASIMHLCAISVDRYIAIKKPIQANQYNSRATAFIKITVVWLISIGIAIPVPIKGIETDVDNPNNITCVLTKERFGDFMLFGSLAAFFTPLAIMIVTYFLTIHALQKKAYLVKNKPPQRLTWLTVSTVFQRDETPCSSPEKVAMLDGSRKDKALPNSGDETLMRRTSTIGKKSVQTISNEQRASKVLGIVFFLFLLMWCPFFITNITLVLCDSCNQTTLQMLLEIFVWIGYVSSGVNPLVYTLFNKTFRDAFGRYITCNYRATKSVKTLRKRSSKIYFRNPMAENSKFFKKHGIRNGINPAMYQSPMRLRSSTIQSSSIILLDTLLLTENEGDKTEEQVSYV
# Format: functional, cell-based

The following molecules have reported results that may help.
Clc1ccc(C(Cn2ccnc2)OCc2ccsc2Cl)c(Cl)c1 (stereo not drawn)
> 30 µM
CC(C)c1nc(N(C)S(C)(=O)=O)nc(-c2ccc(F)cc2)c1/C=C/[C@@H](O)C[C@@H](O)CC(=O)O
> 30 µM
Cc1onc(-c2ccccc2)c1-c1ccc(S(N)(=O)=O)cc1
> 10 µM
CC(C(=O)O)c1ccc(-c2ccccc2)c(F)c1 (stereo not drawn)
> 10 µM
O=C(O)c1ccccc1Nc1cc(Cl)ccc1C(=O)O
> 30 µM

[in] Reported AC50 for CN1CCC(=C2c3ccccc3CCc3cccnc32)CC1 : what is it?
[out] > 10 µM

[in] Please answer likewise for COc1ccc(CC2c3cc(OC)c(OC)cc3CC[N+]2(C)CCC(=O)OCCCCCOC(=O)CC[N+]2(C)CCc3cc(OC)c(OC)cc3C2Cc2ccc(OC)c(OC)c2)cc1OC (stereo not drawn)
[out] > 30 µM

[in] Would you mind doing CCC(COC(=O)c1cc(OC)c(OC)c(OC)c1)(c1ccccc1)N(C)C (stereo not drawn) as well?
[out] > 30 µM

* * *

Let's go through some AC50 measurements on D(3) dopamine receptor (Homo sapiens, UniProt P35462) together.
Sequence (P35462 whole entry): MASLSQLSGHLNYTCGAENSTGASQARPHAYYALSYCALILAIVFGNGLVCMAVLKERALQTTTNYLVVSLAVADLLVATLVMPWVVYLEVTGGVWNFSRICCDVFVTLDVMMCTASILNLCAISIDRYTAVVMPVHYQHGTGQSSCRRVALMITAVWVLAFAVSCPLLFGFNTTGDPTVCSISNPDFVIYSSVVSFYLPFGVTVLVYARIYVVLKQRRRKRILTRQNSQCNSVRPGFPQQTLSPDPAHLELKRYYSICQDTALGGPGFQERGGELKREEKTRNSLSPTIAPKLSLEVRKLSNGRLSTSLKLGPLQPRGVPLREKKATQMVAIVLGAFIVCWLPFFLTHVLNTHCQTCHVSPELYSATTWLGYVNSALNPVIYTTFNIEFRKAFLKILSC

Recorded results for 8 compounds are shown here.
[H]/N=C(\N/C(=N/[H])Nc1ccc(Cl)cc1)NC(C)C
> 30 µM
Nc1ccc(C(=O)Oc2ccccc2)c(O)c1 [PHENYL AMINOSALICYLATE]
> 30 µM
O=C(O)CO
> 30 µM
CCn1cc(C(=O)O)c(=O)c2cc3c(cc21)OCO3
> 30 µM
CC(N)Cc1ccc(O)cc1 (centres undefined) [HYDROXYAMPHETAMINE]
> 30 µM
CC(CCc1ccccc1)NCC(O)c1ccc(O)c(C(N)=O)c1 (centres undefined)
5.85 µM
CC(C)(C)NC[C@H](O)COc1cccc2c1CCCC2=O
> 30 µM
CC[C@@H]([C@H](C)O)n1ncn(-c2ccc(N3CCN(c4ccc(OC[C@@H]5CO[C@@](Cn6cncn6)(c6ccc(F)cc6F)C5)cc4)CC3)cc2)c1=O
> 30 µM

[in] Record Cc1ccccc1N1CCN(CCc2nnc3n2CCCC3)CC1 : what is its AC50 with D(3) dopamine receptor (Homo sapiens, UniProt P35462)?
[out] 16.6 µM

* * *

# MEASUREMENT_TARGET: UniProt:Q12809
# Sequence (Q12809 whole entry): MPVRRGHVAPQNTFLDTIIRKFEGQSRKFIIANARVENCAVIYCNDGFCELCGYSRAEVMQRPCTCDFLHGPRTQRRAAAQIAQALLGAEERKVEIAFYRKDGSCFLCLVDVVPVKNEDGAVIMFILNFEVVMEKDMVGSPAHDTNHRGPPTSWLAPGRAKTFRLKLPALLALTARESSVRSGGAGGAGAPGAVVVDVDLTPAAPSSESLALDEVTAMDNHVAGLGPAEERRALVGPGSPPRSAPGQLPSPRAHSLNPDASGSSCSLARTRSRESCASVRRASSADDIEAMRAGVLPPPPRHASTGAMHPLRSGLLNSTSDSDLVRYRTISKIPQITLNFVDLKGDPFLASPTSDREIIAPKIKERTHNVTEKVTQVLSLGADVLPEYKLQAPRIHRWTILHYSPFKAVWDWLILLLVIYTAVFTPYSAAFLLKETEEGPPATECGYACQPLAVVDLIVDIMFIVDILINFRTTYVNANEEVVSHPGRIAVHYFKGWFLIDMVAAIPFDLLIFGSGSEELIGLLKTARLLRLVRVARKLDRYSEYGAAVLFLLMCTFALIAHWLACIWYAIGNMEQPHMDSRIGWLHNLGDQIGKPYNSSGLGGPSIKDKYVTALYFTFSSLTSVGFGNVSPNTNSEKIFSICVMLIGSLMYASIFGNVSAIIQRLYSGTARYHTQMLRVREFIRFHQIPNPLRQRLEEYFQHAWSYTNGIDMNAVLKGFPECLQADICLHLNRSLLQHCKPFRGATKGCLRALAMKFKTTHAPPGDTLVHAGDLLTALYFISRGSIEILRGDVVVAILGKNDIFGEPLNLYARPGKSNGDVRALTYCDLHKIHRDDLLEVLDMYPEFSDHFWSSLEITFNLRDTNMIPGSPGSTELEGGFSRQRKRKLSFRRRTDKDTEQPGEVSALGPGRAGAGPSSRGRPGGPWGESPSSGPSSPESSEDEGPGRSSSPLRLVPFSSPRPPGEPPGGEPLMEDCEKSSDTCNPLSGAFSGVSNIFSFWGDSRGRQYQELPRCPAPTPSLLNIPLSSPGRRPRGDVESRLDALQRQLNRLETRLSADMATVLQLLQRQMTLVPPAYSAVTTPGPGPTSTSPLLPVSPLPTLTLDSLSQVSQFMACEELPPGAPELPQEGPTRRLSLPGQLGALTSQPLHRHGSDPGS
# Format: functional
Catalogue of AC50 values

See these solved cases before continuing.
CCN(CC)CCN1C(=O)CN=C(c2ccccc2F)c2cc(Cl)ccc21
0.896 µM
CCn1cc(C(=O)O)c(=O)c2cc3c(cc21)OCO3
> 30 µM
OC[C@@H](O)[C@@H](O)[C@H](O)[C@@H](O)CO
> 30 µM
CN(C)CCCNc1c2ccccc2nc2cccc([N+](=O)[O-])c12
0.46 µM
C/C=C/C/C=C/CCC(=O)[C@H]1O[C@H]1C(N)=O
> 30 µM

[in] Give the measured AC50 of CC(CCc1ccccc1)NCC(O)c1ccc(O)c(C(N)=O)c1 (centres undefined) .
[out] > 30 µM

[in] Please give the result for CCC(=O)O[C@]1(C(=O)CCl)[C@@H](C)C[C@H]2[C@@H]3C[C@H](F)C4=CC(=O)C=C[C@]4(C)[C@@]3(F)[C@@H](O)C[C@@]21C [HALOBETASOL PROPIONATE] too.
[out] > 30 µM

[in] Note, next up: CC(=O)SC[C@@H](C)C(=O)N1CCC[C@H]1C(=O)N[C@@H](Cc1ccccc1)C(=O)O
[out] > 30 µM

[in] Input Cc1cc(C(C)(C)C)cc(C)c1CC1=NCCN1
[out] 5.2 µM

* * *

Target or system Androgen receptor (Rattus norvegicus): recorded AC50 listed per item. Also: assay procedure not described here.

These recorded examples may help you get a feel for the data.
CCC1(c2ccccc2)CCC(=O)NC1=O (stereo not given) [GLUTETHIMIDE]
> 10 µM
COc1ccccc1OCCNCC(O)COc1cccc2[nH]c3ccccc3c12 (stereo not given)
> 30 µM
CC1OC2(CS1)CN1CCC2CC1 (stereo not given)
> 10 µM
CN(C)CCc1c[nH]c2ccc(Cn3cncn3)cc12
> 30 µM

Read the next record carefully.
[in] Entry CNC1=Nc2ccc(Cl)cc2C(c2ccccc2)=[N+]([O-])C1 [CHLORDIAZEPOXIDE] : reported AC50 = ?
[out] > 30 µM
